# System: T-Rex 293 cell line SC3 cells lacking increased expression of androgen receptor protein
# PROCEDURE_SUMMARY: Cellular growth inhibition assay, T-Rex 293 SC3 cells without doxycycline (CellTiter-Glo, 72 hours)
# Format: cell-based
# CONDITION_PARAMETERS: 72 h, T-Rex 293 cell line SC3 cells not exposed to doxycycline (lacking increased androgen receptor expression)
REPORTED_METRIC: GI50

// solved cases for GI50 follow
molecule=Cc1sc2c(c1C)C(c1ccc(C(=O)N(C)CCCc3ccc(C(=O)N[C@H]4CC[C@H](Oc5ccc(C#N)c(Cl)c5)CC4)nn3)cc1)=N[C@@H](Cc1ncco1)c1nnc(C)n1-2 test_system="T-Rex 293 cell line SC3 cells lacking increased expression of androgen receptor protein" result="> 3000 nM"
molecule="Cc1sc2c(c1C)C(c1cccc(OC3CCC4(CCN(c5ccc(C(=O)N[C@H]6CC[C@H](Oc7ccc(C#N)c(Cl)c7)CC6)nn5)C4)C3)c1)=N[C@@H](C)c1nnc(C)n1-2 (stereo partly shown)" test_system="T-Rex 293 cell line SC3 cells lacking increased expression of androgen receptor protein" result="< 500 nM"
molecule="Cc1sc2c(c1C)C(c1ccc(C(C)(C)C3CC4(CCCN(c5ccc(C(=O)N[C@H]6CC[C@H](Oc7ccc(C#N)c(Cl)c7)CC6)nn5)C4)C3)cc1)=N[C@@H](C)c1nnc(C)n1-2 (stereo partly shown)" test_system="T-Rex 293 cell line SC3 cells lacking increased expression of androgen receptor protein" result="1500 to 3000 nM"

Now let's try a different one.
Request: Quick one: GI50 for Cc1sc2c(c1C)C(c1ccc(CCCC3CCCN(c4ccc(C(=O)N[C@H]5CC[C@H](OC6CCC(C#N)C(Cl)C6)CC5)nn4)CC3)cc1)=N[C@@H](Cc1ncco1)c1nnc(C)n1-2 (stereo partly shown) ?
Result: < 500 nM

###

Parameter: GI50. Scope: all listed entries.
# Tested on: T-Rex 293 cell line SC3 cells lacking increased expression of androgen receptor protein
# PROCEDURE_SUMMARY: Cellular growth inhibition assay, T-Rex 293 SC3 cells without doxycycline (CellTiter-Glo, 72 hours)
# Format: cell-based
# CONDITION_PARAMETERS: 72 h, T-Rex 293 cell line SC3 cells not exposed to doxycycline (lacking increased androgen receptor expression)
# Experimental: The following types of cells were prepared for this experiment: (i) a T-Rex 293 cell line having increased expression of androgen receptor protein due to exposure to doxycycline and (ii) a T-Rex 293 cell line lacking increased expression of androgen receptor protein. Ability of the test compounds to inhibit proliferation of the foregoing cell types was evaluated according to the procedures set forth below. […] Data was normalized using zero luminescence for baseline. […]

// solved cases for GI50 follow
compound="Cc1sc2c(c1C)C(c1ccc(C#C[C@H]3C[C@]4(CCCN(c5ccc(C(=O)N[C@H]6CC[C@H](Oc7ccc(C#N)c(Cl)c7)CC6)nn5)C4)C3)cc1)=N[C@@H](Cc1ncco1)c1nnc(C)n1-2 [I-234]" reported_metric=GI50 result="< 500 nM"
compound="Cc1sc2c(c1C)C(c1ccc([C@H]3C[C@H](C[C@@H]4CCCN(c5ccc(C(=O)N[C@H]6CC[C@H](Oc7ccc(C#N)c(Cl)c7)CC6)nn5)C4)C3)cc1)=N[C@@H](Cc1ncco1)c1nnc(C)n1-2 [I-357]" reported_metric=GI50 result="< 500 nM"
compound="Cc1sc2c(c1C)C(c1ccc(N3C[C@@]4(F)CN(c5ccc(C(=O)N[C@H]6CC[C@H](Oc7ccc(C#N)c(Cl)c7)CC6)nn5)C[C@@]4(F)C3)cc1)=N[C@@H](C)c1nnc(C)n1-2 [I-675]" reported_metric=GI50 result="< 500 nM"
compound="Cc1sc2c(c1C)C(c1ccc(CN3CCO[C@@H](CNc4ccc(C(=O)N[C@H]5CC[C@H](Oc6ccc(C#N)c(Cl)c6)CC5)nn4)C3)cc1)=N[C@@H](Cc1ncco1)c1nnc(C)n1-2 [I-298]" reported_metric=GI50 result="< 500 nM"
compound="Cc1sc2c(c1C)C(c1ccc(CC3CN(CC4CCN(c5ccc(C(=O)N[C@H]6CC[C@H](Oc7ccc(C#N)c(Cl)c7)CC6)nn5)CC4)C3)cc1)=N[C@@H](Cc1ncco1)c1nnc(C)n1-2 [I-113]" reported_metric=GI50 result="500 to 1500 nM"

Request: Quick one: GI50 for Cc1sc2c(c1C)C(c1ccc(N3CC4(CC(C#Cc5ccc(C(=O)N[C@H]6CC[C@H](Oc7ccc(C#N)c(Cl)c7)CC6)nn5)C4)C3)cc1)=N[C@@H](Cc1ncco1)c1nnc(C)n1-2 [I-545] ?
Result: < 500 nM

Request: Quick one: GI50 for Cc1sc2c(c1C)C(c1ccc(O[C@H]3C[C@@]4(CCCN(c5ccc(C(=O)N[C@H]6CC[C@H](Oc7ccc(C#N)c(Cl)c7)CC6)nn5)C4)C3)nc1)=N[C@@H](Cc1ncco1)c1nnc(C)n1-2 [I-220] ?
Result: > 3000 nM

Request: Quick one: GI50 for Cc1sc2c(c1C)C(c1ccc(C[C@H]3C[C@]4(CCCN(c5ccc(C(=O)N[C@H]6CC[C@H](Oc7ccc(C#N)c(Cl)c7)CC6)nn5)C4)C3)cc1)=N[C@@H](Cc1ncco1)c1nnc(C)n1-2 [I-119] ?
Result: < 500 nM

Request: Quick one: GI50 for Cc1sc2c(c1C)C(c1ccc(CCO[C@H]3CCCN(c4ccc(C(=O)N[C@H]5CC[C@H](Oc6ccc(C#N)c(Cl)c6)CC5)nn4)C3)cc1)=N[C@@H](C)c1nnc(C)n1-2 [I-325] ?
Result: > 3000 nM

Request: Quick one: GI50 for CC1=NN=C2C1c1sc(C)c(C)c1C(c1ccc(C#CC3C4CN(c5ccc(C(=O)N[C@H]6CC[C@H](Oc7ccc(C#N)c(Cl)c7)CC6)nn5)CC34)cc1)=N[C@@H]2Cc1ncco1 (stereo partly shown) [I-408] ?
Result: < 500 nM

Request: Quick one: GI50 for Cc1sc2c(c1C)C(c1ccc(C[C@H]3C[C@]4(CCCN(c5ccc(C(=O)N[C@H]6CC[C@H](Oc7ccc(C#N)c(Cl)c7)CC6)nn5)C4)C3)nc1)=N[C@@H](Cc1ncco1)c1nnc(C)n1-2 [I-385] ?
Result: > 3000 nM

Request: Quick one: GI50 for Cc1sc2c(c1C)C(c1ccc(NC3CCCN(c4ncc(C(=O)N[C@H]5CC[C@H](Oc6ccc(C#N)c(Cl)c6)CC5)cn4)CC3)cc1)=NC(Cc1ncco1)c1nnc(C)n1-2 (stereo partly shown) [I-789] ?
Result: < 500 nM

Request: Quick one: GI50 for Cc1sc2c(c1C)C(c1ccc(C3CCC(N4CCCN(c5ccc(C(=O)N[C@H]6CC[C@H](Oc7ccc(C#N)c(Cl)c7)CC6)nn5)CC4)CC3)cc1)=N[C@H](Cc1ncco1)c1nnc(C)n1-2 (stereo partly shown) [I-225] ?
Result: < 500 nM

###

Parameter: GI50. Scope: all listed entries.
# Tested on: T-Rex 293 cell line SC3 cells lacking increased expression of androgen receptor protein
# PROCEDURE_SUMMARY: Cellular growth inhibition assay, T-Rex 293 SC3 cells without doxycycline (CellTiter-Glo, 72 hours)
# Type: cell-based
# CONDITION_PARAMETERS: 72 h, T-Rex 293 cell line SC3 cells not exposed to doxycycline (lacking increased androgen receptor expression)

Request: Give T-Rex 293 cell line SC3 cells lacking increased expression of androgen receptor protein GI50 for CC1=NN=C2C1c1sc(C)c(C)c1C(c1ccc(C#CC3CCN(c4ccc(C(=O)N[C@H]5CC[C@H](Oc6ccc(C#N)c(Cl)c6)CC5)nn4)CC3)cc1)=N[C@H]2Cc1ncco1 (stereo partly drawn) [I-394]
Result: < 500 nM

###

# Test system: T-Rex 293 cell line SC3 cells lacking increased expression of androgen receptor protein
# PROCEDURE_SUMMARY: Cellular growth inhibition assay, T-Rex 293 SC3 cells without doxycycline (CellTiter-Glo, 72 hours)
# Format: cell-based
# CONDITION_PARAMETERS: 72 h, T-Rex 293 cell line SC3 cells not exposed to doxycycline (lacking increased androgen receptor expression)
REPORTED_METRIC: GI50

// solved cases for GI50 follow
molecule="Cc1sc2c(c1C)C(c1ccc(CCCC3CCCN(c4ccc(C(=O)N[C@H]5CC[C@H](Oc6ccc(C#N)c(Cl)c6)CC5)nn4)CC3)nc1)=N[C@@H](C)c1nnc(C)n1-2 (stereo partly shown) [I-671]" reported_metric=GI50 result="< 500 nM"
molecule="Cc1sc2c(c1C)C(c1ccc(C(=O)N3CC[C@]4(CCCN(c5ccc(C(=O)N[C@H]6CC[C@H](Oc7ccc(C#N)c(Cl)c7)CC6)nn5)C4)C3)cc1)=N[C@H](Cc1ncco1)c1nnc(C)n1-2 [I-272]" reported_metric=GI50 result="> 3000 nM"
molecule="COC[C@@H]1N=C(c2ccc(CC3CC4(CCN(c5ccc(C(=O)N[C@H]6CC[C@H](Oc7ccc(C#N)c(Cl)c7)CC6)nn5)CC4)C3)cc2)c2c(sc(C)c2C)-n2c(C)nnc21 [I-692]" reported_metric=GI50 result="< 500 nM"
molecule="Cc1sc2c(c1C)C(c1ccc(-c3ccc(C4CC5(C4)CN(c4ccc(C(=O)N[C@H]6CC[C@H](Oc7ccc(C#N)c(Cl)c7)CC6)nn4)C5)cc3)cc1)=N[C@@H](Cc1ncco1)c1nnc(C)n1-2 [I-412]" reported_metric=GI50 result="< 500 nM"
molecule="Cc1sc2c(c1C)C(c1ccc(CC(C)(C)N3CC4(CCCN(c5ccc(C(=O)N[C@H]6CC[C@H](Oc7ccc(C#N)c(Cl)c7)CC6)nn5)C4)C3)cc1)=N[C@@H](Cc1ncco1)c1nnc(C)n1-2 [I-393]" reported_metric=GI50 result="1500 to 3000 nM"

Request: Quick one: GI50 for Cc1sc2c(c1C)C(c1ccc(C(=O)N3CCC(Cc4ccc(C(=O)N[C@H]5CC[C@H](Oc6ccc(C#N)c(Cl)c6)CC5)nn4)CC3)cc1)=N[C@@H](Cc1ncco1)c1nnc(C)n1-2 [I-240] ?
Result: > 3000 nM

Request: Quick one: GI50 for Cc1sc2c(c1C)C(c1ccc(NCC(=O)N3CCC(c4ccc(C(=O)N[C@H]5CC[C@H](Oc6ccc(C#N)c(Cl)c6)CC5)nn4)CC3)cc1)=N[C@H](Cc1ncco1)c1nnc(C)n1-2 [I-248] ?
Result: 500 to 1500 nM

Request: Quick one: GI50 for Cc1sc2c(c1C)C(c1ccc(C(=O)N3CCN(Cc4ccc(C(=O)N[C@H]5CC[C@H](Oc6ccc(C#N)c(Cl)c6)CC5)nn4)CC3)cc1)=N[C@@H](Cc1ncco1)c1nnc(C)n1-2 [I-290] ?
Result: > 3000 nM

Request: Quick one: GI50 for Cc1sc2c(c1C)C(c1ccc(OC3CC4(CCN(c5ccc(C(=O)N[C@H]6CC[C@H](Oc7ccc(C#N)c(Cl)c7)CC6)nn5)CC4)C3)cc1)=N[C@@H](CC#N)c1nnc(C)n1-2 [I-83] ?
Result: > 3000 nM

Request: Quick one: GI50 for Cc1sc2c(c1C)C(c1ccc(CC3CC4(CCCN(c5ccc(C(=O)N[C@H]6CC[C@H](Oc7ccc(C#N)c(Cl)c7)CC6)nn5)C4)C3)cc1)=N[C@@H](C)c1nnc(C)n1-2 (stereo partly shown) [I-338] ?
Result: > 3000 nM

Request: Quick one: GI50 for CCNC(=O)C[C@@H]1N=C(c2ccc(N3CCC(N(C)C4CCN(c5ccc(C(=O)N[C@H]6CC[C@H](Oc7ccc(C#N)c(Cl)c7)CC6)nn5)CC4)CC3)cc2)c2c(sc(C)c2C)-n2c(C)nnc21 [I-43] ?
Result: 1500 to 3000 nM

Request: Quick one: GI50 for Cc1sc2c(c1C)C(c1ccc(NCCCC3CCN(c4ncc(C(=O)N[C@H]5CC[C@H](Oc6ccc(C#N)c(Cl)c6)CC5)cn4)CC3)cc1)=NC(Cc1ncco1)c1nnc(C)n1-2 (stereo partly shown) [I-806] ?
Result: < 500 nM

Request: Quick one: GI50 for Cc1sc2c(c1C)C(c1ccc(C[C@H]3CCC4CN(c5ccc(C(=O)N[C@H]6CC[C@H](Oc7ccc(C#N)c(Cl)c7)CC6)nn5)CCN4C3)cc1)=N[C@H](Cc1ncco1)c1nnc(C)n1-2 (stereo partly shown) [I-260] ?
Result: < 500 nM

Request: Quick one: GI50 for Cc1sc2c(c1C)C(c1ccc(N3CC[C@H](Nc4ncc(C(=O)N[C@H]5CC[C@H](Oc6ccc(C#N)c(Cl)c6)CC5)cn4)C3)cc1)=NC(Cc1ncco1)c1nnc(C)n1-2 (stereo partly shown) [I-776] ?
Result: < 500 nM

Request: Quick one: GI50 for Cc1sc2c(c1C)C(c1ccc(OC3CC4(C3)CC3(CCN(c5ccc(C(=O)N[C@H]6CC[C@H](Oc7ccc(C#N)c(Cl)c7)CC6)nn5)CC3)C4)cc1)=N[C@@H](C)c1nnc(C)n1-2 [I-435] ?
Result: > 3000 nM

Request: Quick one: GI50 for Cc1sc2c(c1C)C(c1ccc(OC3CC4(CCN(c5ccc(C(=O)N[C@H]6CC[C@H](Oc7ccc(C#N)c(Cl)c7)CC6)cn5)CC4)C3)cc1)=N[C@@H](Cc1ncco1)c1nnc(C)n1-2 [I-88] ?
Result: < 500 nM
